Would you mind telling me the reported phosphorylation enrichment of each entry?
Target: Hck (UniProt P08631)
Sequence (P08631 whole entry, looked up): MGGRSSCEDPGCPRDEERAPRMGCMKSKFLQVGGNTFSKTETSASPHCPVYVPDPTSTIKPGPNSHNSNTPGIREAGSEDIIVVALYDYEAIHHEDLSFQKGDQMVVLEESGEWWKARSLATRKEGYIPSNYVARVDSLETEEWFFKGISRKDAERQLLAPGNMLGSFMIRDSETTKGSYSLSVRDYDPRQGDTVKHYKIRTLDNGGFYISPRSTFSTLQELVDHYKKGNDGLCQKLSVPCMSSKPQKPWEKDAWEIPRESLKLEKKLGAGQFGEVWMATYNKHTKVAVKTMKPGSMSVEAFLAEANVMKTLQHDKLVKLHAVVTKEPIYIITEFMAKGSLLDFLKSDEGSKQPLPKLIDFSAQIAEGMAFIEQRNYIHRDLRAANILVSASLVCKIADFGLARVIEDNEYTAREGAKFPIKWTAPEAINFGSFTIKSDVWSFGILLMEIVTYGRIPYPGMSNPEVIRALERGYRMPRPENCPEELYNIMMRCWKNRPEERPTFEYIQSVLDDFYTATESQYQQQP
Assay: phosphorylation enrichment, bacterial display (enrichment ratio); higher = better substrate or ligand; peptides without Tyr show the background

Please tell me the measured phosphorylation enrichment for VATSWYRSPEL [CDKL5_Y177_R175S] ; system: Hck (UniProt P08631).
0.469

Report the value of phosphorylation enrichment obtained on Hck (UniProt P08631) for FQKNVYSEELR [LMNA_Y211_I210V] .
0.486

Give Hck (UniProt P08631) phosphorylation enrichment for the following sequence: FIGCIYLFLTK [GARS1_Y414_R412C_YF]
0.485

Specify phosphorylation enrichment for PTTKTYFLHFD [HBA1_Y43_P45L] , system Hck (UniProt P08631).
0.816

Fill in phosphorylation enrichment for DMDATYRPMFS [JUP_Y701_YF] tested with Hck (UniProt P08631).
0.762

Provide phosphorylation enrichment, recorded with Hck (UniProt P08631), of KILGRYFETGS [PAX2_Y72_YF]
0.397

Fill in phosphorylation enrichment for HEHKGYNANFC [TGFB2_Y341_P338H] tested with Hck (UniProt P08631).
0.832

# assay system Hck (UniProt P08631): give phosphorylation enrichment of LDFNEYVRDLN [HPRT1_Y198_F199V_YF]
0.707

Name the recorded phosphorylation enrichment of FSDPDYLAAVD [GLB1_Y154_S149F] , assay system Hck (UniProt P08631).
0.702

Enter measured phosphorylation enrichment, system Hck (UniProt P08631), for the sequence shown: SSYDIYHLSRE [KIR3DL2_Y253]
12.2

Find the measured phosphorylation enrichment of FGLPRYRWLTH [TSPAN12_Y143_YF] with Hck (UniProt P08631) as test system.
0.526

Using Hck (UniProt P08631) as the test system, report measured phosphorylation enrichment of GLAELYEFQKK [CKAP5_Y1854_K1857Q_YF] .
1.23

###

Target: Jak2 (UniProt O60674)
Sequence (O60674 whole entry, looked up): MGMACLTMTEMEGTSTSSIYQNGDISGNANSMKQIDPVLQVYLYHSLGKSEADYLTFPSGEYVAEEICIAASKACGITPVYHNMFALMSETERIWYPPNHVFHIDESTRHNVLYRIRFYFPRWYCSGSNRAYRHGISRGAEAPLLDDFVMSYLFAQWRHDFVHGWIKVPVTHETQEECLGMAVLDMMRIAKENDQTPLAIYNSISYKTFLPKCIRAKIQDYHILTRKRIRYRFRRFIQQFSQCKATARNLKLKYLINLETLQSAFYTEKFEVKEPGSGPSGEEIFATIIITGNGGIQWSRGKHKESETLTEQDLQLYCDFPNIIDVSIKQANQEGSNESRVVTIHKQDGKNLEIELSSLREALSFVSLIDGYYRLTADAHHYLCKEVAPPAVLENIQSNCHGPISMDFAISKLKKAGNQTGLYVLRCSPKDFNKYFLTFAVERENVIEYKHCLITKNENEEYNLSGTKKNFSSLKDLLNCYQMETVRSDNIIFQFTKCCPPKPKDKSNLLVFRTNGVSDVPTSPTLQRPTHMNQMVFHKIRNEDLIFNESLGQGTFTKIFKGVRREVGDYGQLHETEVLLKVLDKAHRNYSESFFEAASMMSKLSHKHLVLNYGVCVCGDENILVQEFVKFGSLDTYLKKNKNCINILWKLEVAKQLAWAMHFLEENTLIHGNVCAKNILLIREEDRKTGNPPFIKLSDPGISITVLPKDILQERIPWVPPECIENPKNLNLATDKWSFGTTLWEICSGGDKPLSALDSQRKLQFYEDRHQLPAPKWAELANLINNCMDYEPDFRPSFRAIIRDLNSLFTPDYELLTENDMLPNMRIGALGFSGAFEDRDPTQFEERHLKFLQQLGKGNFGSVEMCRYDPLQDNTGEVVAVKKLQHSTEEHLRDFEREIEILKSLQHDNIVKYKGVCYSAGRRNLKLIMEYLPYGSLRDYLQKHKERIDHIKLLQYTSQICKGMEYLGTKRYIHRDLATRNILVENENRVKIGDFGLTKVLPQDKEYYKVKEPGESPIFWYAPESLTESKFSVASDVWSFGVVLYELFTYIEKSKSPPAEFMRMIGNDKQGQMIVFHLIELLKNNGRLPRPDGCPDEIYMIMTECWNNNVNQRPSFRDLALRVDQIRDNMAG
Test: phosphorylation enrichment, bacterial display (enrichment ratio); higher = better substrate or ligand; peptides without Tyr show the background
measured.metric: phosphorylation enrichment
Lab note: record just the number, no unit beside it.

Answer with reported phosphorylation enrichment of CEHRGYLYLAI [TEK_Y897]
0.973

Kindly indicate its recorded phosphorylation enrichment. Item: KDHPDYKYQPR [SOX10_Y171]
0.509

Kindly indicate its recorded phosphorylation enrichment. Item: EQKKYSNAMKK [SCN5A_Y1495_Y1495S]
0.437

State its phosphorylation enrichment: ESTPLYPMLFG [SCLY_Y280_F276S]
1.09

Provide measured phosphorylation enrichment value, entry: VATSWYRSPEL [CDKL5_Y177_R175S]
0.548

Read off the recorded phosphorylation enrichment for CTTIHYSYMCN [TP53_Y234_N235S]
0.663

Identify measured phosphorylation enrichment associated with LDFNEYVRDLN [HPRT1_Y198_F199V_YF]
1.31

Given the sequence ADQLDYIKALN [HPRT1_Y81_L78Q] , write its reported phosphorylation enrichment.
0.861

Retrieve phosphorylation enrichment measured for FPLELYERVRI [PRKCG_Y312_M317I_YF] and print it.
1.39

State, in one line, measured phosphorylation enrichment of SPPPAFTPMSG [ERBB4_Y1056_Y1056F]
0.496

###

System: c-Abl (mouse)
Assay: phosphorylation enrichment, bacterial display (enrichment ratio); higher = better substrate or ligand; peptides without Tyr show the background
Record form. Attribute: phosphorylation enrichment. Fill in for each entry.
Lab note: jot down the number only; don't add units.

// fetch phosphorylation enrichment; item: QRALLYEDTLY [UNC13D_Y56_A59T] ; system: c-Abl (mouse)
0.819

// fetch phosphorylation enrichment for HNLYSYPTKHE [MYO3A_Y1396] ; system: c-Abl (mouse)
3.28

Check c-Abl (mouse) data and give phosphorylation enrichment for PMFTKYGNSLL [RPGRIP1L_Y196] .
1.49

With c-Abl (mouse) as the test system, provide measured phosphorylation enrichment for this sequence: FLTQHYDAKPQ [ANG_Y38]
0.613

System c-Abl (mouse). Read-out phosphorylation enrichment. Item CTNELYMMMRD [FGFR1_Y730] . Report value.
0.898

Please respond with reported phosphorylation enrichment (system c-Abl (mouse)) for ADDSYYTVRSA [ZAP70_Y493_A495V] .
0.611

###

Please go through the items and note down their SH2 binding enrichment.
Target: c-Src SH2;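 note: peptide library displayed on the E. coli surface as eCPX fusions, selected cells deep-sequenced, score is each peptide's frequency after selection divided by its frequency in the input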
Experiment: SH2 binding enrichment of the phosphorylated peptide, bacterial display (enrichment ratio); higher = better substrate or ligand; peptides without Tyr show the background
Respond using a number only.

Fill in SH2 binding enrichment for record RKVLVYDKLNV [ROR2_Y624_N620K]
1.44

For the sequence GCKNHYDKDKP [THAP1_Y14_R13H] , give its reported SH2 binding enrichment.
0.845

Return SH2 binding enrichment (reported value) for this sequence: QDTSRYTVCNL [BIRC3_Y245_S248C]
1.29

Answer with the recorded SH2 binding enrichment for the sequence listed here: MGSYNYLGFAR [SPTLC2_Y178]
2.54

Report SH2 binding enrichment for QDEHGYISLCF [HSPB1_Y133_R136L]
0.485

Please give measured SH2 binding enrichment of the following entry: MALDRYVAICK [OR2B11_Y127]
1.35

Answer with the recorded SH2 binding enrichment of SVTCTYSPALF [TP53_Y126_N131Y_YF] only.
0.422

###

I'd be grateful if you could share measured phosphorylation enrichment for these entries.
Tested on: Fer (mouse)
Experiment: phosphorylation enrichment, bacterial display (enrichment ratio); higher = better substrate or ligand; peptides without Tyr show the background
Form: value (number only, do not type unit).

Dear colleague, please send me the reported phosphorylation enrichment for CERFSYFGMKA [SLC15A2_Y60_YF] when you can.
0.467

Please give measured phosphorylation enrichment of the following entry: AACQHYGVRTC [NR4A2_Y275]
0.379

Tell me measured phosphorylation enrichment for RLPSGYGLAFR [DLK1_Y262_YF] please.
0.49

State, in one line, measured phosphorylation enrichment of MKKMHYVDPDH [ST3GAL5_Y99]
0.32

Identify measured phosphorylation enrichment associated with GYKVRYATWSI [FGFR1_Y210]
0.456

Fill in phosphorylation enrichment for record LYEDRYLLGPS [ASS1_Y87_T91P]
5.42

Tell me its phosphorylation enrichment given LSPPVYLTNEW [NRK_Y885_I880L] as the entry.
0.636

State its phosphorylation enrichment for this sequence: SVTCTYSAALN [TP53_Y126_P128A]
0.552

# return recorded phosphorylation enrichment for input HNLYSYPTKHE [MYO3A_Y1396]
15.2

Output phosphorylation enrichment of VRQQVYKKVEE [HADHA_Y283]
0.331

Identify phosphorylation enrichment associated with the sequence DYGSGYPNDPK [RNASEH2A_Y210]
0.538

Name the recorded phosphorylation enrichment of the sequence listed here: AAILGYCRGEA [XPC_Y669]
0.419

###

Biological target: EPHB2 (UniProt P29323)
Sequence (P29323 whole entry, looked up): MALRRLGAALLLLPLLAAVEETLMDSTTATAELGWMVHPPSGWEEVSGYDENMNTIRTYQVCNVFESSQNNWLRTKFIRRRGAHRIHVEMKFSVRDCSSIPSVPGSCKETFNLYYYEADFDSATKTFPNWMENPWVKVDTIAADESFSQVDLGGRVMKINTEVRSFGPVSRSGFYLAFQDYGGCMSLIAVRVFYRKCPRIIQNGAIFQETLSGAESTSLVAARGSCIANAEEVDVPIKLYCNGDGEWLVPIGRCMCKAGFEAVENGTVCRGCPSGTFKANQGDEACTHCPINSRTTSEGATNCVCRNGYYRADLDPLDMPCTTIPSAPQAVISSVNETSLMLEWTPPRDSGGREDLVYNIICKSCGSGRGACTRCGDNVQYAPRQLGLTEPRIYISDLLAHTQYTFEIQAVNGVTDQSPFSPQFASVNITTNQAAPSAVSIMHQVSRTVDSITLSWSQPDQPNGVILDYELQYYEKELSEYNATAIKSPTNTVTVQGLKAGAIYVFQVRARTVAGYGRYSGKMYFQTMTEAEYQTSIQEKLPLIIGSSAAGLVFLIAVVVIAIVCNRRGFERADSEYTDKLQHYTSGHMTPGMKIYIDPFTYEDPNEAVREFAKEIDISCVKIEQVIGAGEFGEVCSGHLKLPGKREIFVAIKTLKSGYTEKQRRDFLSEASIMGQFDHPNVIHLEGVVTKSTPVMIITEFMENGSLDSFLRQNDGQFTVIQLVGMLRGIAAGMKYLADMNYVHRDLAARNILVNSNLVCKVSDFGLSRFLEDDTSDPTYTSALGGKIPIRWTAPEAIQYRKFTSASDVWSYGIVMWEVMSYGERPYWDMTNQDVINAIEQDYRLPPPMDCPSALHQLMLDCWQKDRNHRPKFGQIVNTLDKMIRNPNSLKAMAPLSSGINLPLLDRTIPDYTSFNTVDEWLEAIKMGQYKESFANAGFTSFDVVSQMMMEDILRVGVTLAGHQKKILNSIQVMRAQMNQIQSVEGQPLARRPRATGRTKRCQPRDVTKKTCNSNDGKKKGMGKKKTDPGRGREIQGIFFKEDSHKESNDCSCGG
Experiment: phosphorylation enrichment, bacterial display (enrichment ratio); higher = better substrate or ligand; peptides without Tyr show the background
For each entry below, report its phosphorylation enrichment value.
I'd appreciate a reply containing only the number, no unit.

Tell me phosphorylation enrichment reported for SAAAIYTVRHP [PMP22_Y117]
0.516

# return recorded phosphorylation enrichment for entry LQPNNYQFCGG [CSF1R_Y969]
2.2

Provide one value: measured phosphorylation enrichment of EKDSNYCLCRT [ASIC2_Y357]
0.634

Specify measured phosphorylation enrichment for EREYKYDAHNY [OAT_Y50_G51D] .
0.575

Please report phosphorylation enrichment for the following sequence: AALRLYHVSDS [VIL1_Y256_K254R]
0.508

Quickly give me recorded phosphorylation enrichment for HNLDYYKMTTN [FGFR3_Y648_K650M]
1.2

Output measured phosphorylation enrichment for this item: KVPRHYDDPGK [FOXG1_Y246]
0.373

Query phosphorylation enrichment for LYEDRYLLGPS [ASS1_Y87_T91P]
1.4

For the sequence HHFAAYFQQGD [GPI_Y351_R347H] , give its measured phosphorylation enrichment value.
0.602

Supply reported phosphorylation enrichment belonging to this sequence: NIFSFYLSRDP [CTSD_Y232]
0.506

Tell me phosphorylation enrichment reported for VVEFGYEFFAK [PPP1CB_Y254_D252Y_YF]
0.52

Identify phosphorylation enrichment associated with the sequence QELRRYLKSSV [MICA_Y194_G198S]
0.349

Quickly give me recorded phosphorylation enrichment for IIGNGYYFHVF [MYBPC3_Y1135_R1138H]
0.559

Fill in reported phosphorylation enrichment for this entry: LSSNLYYRWLT [CNGA3_Y168_P163L]
8.33

# return recorded phosphorylation enrichment for input SMVVPYEPPEV [TP53_Y220_V216M]
0.625

Give phosphorylation enrichment for TPGPNYRPGFN [USH2A_Y463_YF]
0.436

Supply measured phosphorylation enrichment of ALKKPYSVLFK [RPF2_Y59_G60S_YF] in your reply.
0.43

State its phosphorylation enrichment for this sequence: NIEPIYLNMLL [ATR_Y317_V316I]
14.5

Please supply the value of reported phosphorylation enrichment for the item KPLMPSMRYSR [SMARCE1_Y73_Y73S]
0.445
